# Tested on: MCF7 breast
# TEST: NCI-60 one-dose screen, 48 h
# CONDITION: 10 µM unless noted
The panel holds about 83,000 compounds, 20% with a hit somewhere; the sample as a whole holds those more often. Calls of active or inactive are those of the source. Rule for the calls: active = growth percent below 10; inactive = the rest.
Possible outcomes: active, inactive

# MOLECULE, CLASS LABEL
rows = [
    ("CCCCCCCCc1ccc(C(=O)Nc2cccc(P(=O)(O)O)c2)cc1", "inactive"),
    ("COc1ccc2[nH]cc(-c3nnc(N)nc3-c3c[nH]c4ncc(Br)cc34)c2c1", "inactive"),
    ("CC1(C)CC[C@]2(C(=O)O)CC[C@]3(C)C(=CCC4[C@@]5(C)C[C@@H](O)[C@@H]6OC(c7ccc(F)cc7)OC[C@@]6(C)C5CC[C@]43C)C2C1 (some centres not stated)", "inactive"),
    ("Cc1cccc(-c2nc(Nc3ccc(C)c(S(N)(=O)=O)c3)c3ccccc3n2)c1", "active"),
    ("S=C(Nc1ccccc1)Nc1ccc(OCc2nc3ccccc3[nH]2)cc1", "inactive"),
    ("N#Cc1c(-c2cccc3ccccc23)cc(-c2cccc(OCC(=O)O)c2)[nH]c1=O", "inactive"),
    ("Cc1ccc(C(SCCNCc2cc(N(C)C)ccn2)(c2ccccc2)c2ccccc2)cc1", "active"),
    ("CCOC(=O)COc1c(OC)c(OC)cc2oc(-c3cccc(C(=O)Nc4ccc(Cl)cc4)c3)cc(=O)c12", "inactive"),
    ("Cn1cc(-c2cc3nc(-c4c[nH]c5ccc(Br)cc45)cc(N)n3n2)c2ccccc21", "active"),
    ("Cn1cc(NC(=O)c2cc(NC(=O)c3ccc(C#Cc4ccccc4)cc3)cn2C)cc1C(=O)NCCCN1CCOCC1", "active"),
    ("Nc1nc(C(F)(F)F)cs1", "inactive"),
    ("COc1ccc(/C=C/c2nc3ccccc3nc2Nc2cccc(C)c2)cc1", "inactive"),
    ("Cc1cc(C)cc(NC(=O)Cn2cc(COn3nnc4ccccc43)nn2)c1", "inactive"),
    ("COc1cc(-c2ccc(/C=N/NC(=O)c3[nH]c4ccc(Br)cc4c3-c3ccccc3)s2)cc(OC)c1OC", "inactive"),
    ("Nc1cccc(SCc2cc3ccccc3[nH]c2=O)c1", "inactive"),
    ("CN(C)CCOc1ccc(C(=O)C2[C@H](c3ccc(Cl)cc3)[C@@H](c3ccccc3)NC23C(=O)Nc2ccc(Br)cc23)cc1 (some centres not stated)", "active"),
    ("CC(C)c1ccc2c(N)c(C(=O)Nc3cccc(C(F)(F)F)c3)sc2n1", "inactive"),
    ("Nc1nnc(-c2c[nH]c3ncc(Br)cc23)c(-c2c[nH]c3ccc(F)cc23)n1", "inactive"),
    ("Cc1ccccc1[C@H]1C(C(=O)c2ccc(Cl)cc2)C2(N[C@@H]1c1ccccc1)C(=O)Nc1ccc(Cl)cc12 (some centres not stated)", "active"),
    ("CC1=C(C(=O)c2ccccc2)C(c2cccc3ccccc23)n2c(nc3ccccc32)N1 (configuration not stated)", "inactive"),
    ("Cn1cc(-c2nnc(N)nc2-c2c[nH]c3ccc(Br)cc23)c2cc(Br)cnc21", "inactive"),
    ("CC(=O)N1CCN(Cc2ccc3c(NNC(=O)c4cnccn4)nc4cc(F)ccc4n23)CC1", "inactive"),
    ("COc1ccc2[nH]c(O)c(N=NC(=O)Cn3c(-c4ccccc4)nc4cc(C)ccc43)c2c1", "inactive"),
    ("COc1cccc(-c2c(C#N)c(-c3ccc(Cl)cc3)nc3n[nH]c(-c4ccc(Cl)cc4)c23)c1", "inactive"),
    ("CCS(=O)(=O)N1CCCC(C(=O)Nc2nc3ccc(NC(=O)c4ccc(F)c(OC)c4F)cc3s2)C1 (configuration not stated)", "inactive"),
    ("Cn1cc(-c2nc(N)nnc2-c2c[nH]c3ccc(Br)cc23)c2cc(Br)cnc21", "active"),
    ("COc1ccc(-c2nnc3ccc(N/N=C/c4ccc(O)cc4)nn23)cc1", "inactive"),
    ("CN1CCN(c2ccc3c(c2)nc(NNC(=O)c2ncccn2)c2cccn23)CC1", "active"),
    ("COc1cc(CNC(=O)/C=C/c2ccc3c(c2)OCO3)ccc1OCc1cn(-c2ccc([N+](=O)[O-])cc2)nn1", "inactive"),
    ("CN(C)c1nc(NCCNS(=O)(=O)c2ccc(C(=O)/C=C/c3ccc(C(F)(F)F)cc3)cc2)nc(Nc2ccc(F)cc2)n1", "active"),
    ("CN(C)CCn1c2ccccc2c2nc3cc(C(F)(F)F)ccc3nc21", "active"),
    ("COc1cc(C2CC(c3cc(OC)c(OC)c(OC)c3)=NN2C(C)=O)ccc1OCc1ccc(F)cc1 (configuration not stated)", "inactive"),
    ("CN1CCN(c2ccc3c(c2)nc(NNC(=O)c2cnccn2)c2cccn23)CC1", "active"),
    ("COc1cc(/C=C/C(=O)c2nnn(-c3ccc(Cl)cc3)c2C)cc(OC)c1OC", "active"),
    ("O=C(NNc1nc2cc(F)ccc2n2c(CN3CCCCC3)ccc12)c1cnccn1", "active"),
    ("CCOC(=O)C1=C(N)N(c2ccccc2)C2=C(C(=O)CC(C)(C)C2)C1c1ccc([N+](=O)[O-])cc1 (configuration not stated)", "inactive"),
    ("CCCCCCn1c(O)c(N=Nc2nc(-c3cc4ccccc4oc3=O)cs2)c2ccccc21", "active"),
]
